Collected from the literature: pKi of various compounds toward 5-hydroxytryptamine receptor 1A (Rattus norvegicus, UniProt P19327).
Experimental System: 5-hydroxytryptamine receptor 1A (Rattus norvegicus, UniProt P19327)
Sequence (P19327 whole entry): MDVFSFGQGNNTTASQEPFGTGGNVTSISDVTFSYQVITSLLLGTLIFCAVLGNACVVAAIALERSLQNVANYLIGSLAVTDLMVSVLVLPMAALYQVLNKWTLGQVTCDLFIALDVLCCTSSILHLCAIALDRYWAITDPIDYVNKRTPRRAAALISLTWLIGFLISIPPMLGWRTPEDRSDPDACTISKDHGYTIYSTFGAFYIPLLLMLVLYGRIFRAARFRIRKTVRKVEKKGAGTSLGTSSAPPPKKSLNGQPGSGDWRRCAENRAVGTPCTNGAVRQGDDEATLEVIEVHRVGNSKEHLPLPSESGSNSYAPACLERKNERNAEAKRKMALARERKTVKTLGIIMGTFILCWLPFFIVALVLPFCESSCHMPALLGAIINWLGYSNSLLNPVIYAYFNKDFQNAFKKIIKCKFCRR
Numbers only, as −log10 of the molar value.

Compound: COc1ccccc1N1CCN(CCC(O)c2csc3ccc(F)cc23)CC1 (stereo not given)
pKi: 8.64

# per-item lookup of pKi; items listed below
1. CC(C)(C)c1cc2[nH]c(=O)n(CCN3CCN(c4ccccc4Cl)CC3)c(=O)c2[nH]1
2. O=C1C2CCCN2C(=O)N1CCCCCNCC1CCc2ccccc2O1 (stereo not given)
3. O=C1CCOc2c(OCCNCCCCc3ccc(O)cc3)cc(F)cc21

7.19
7.89
7.25

Hi there! I need pKi for each item below, if you can.
1. O=C1CCc2cc(CCCCN3CCC(c4noc5cc(F)ccc45)CC3)cc3c2N1CC3
2. COc1ccccc1N1CCN(CCCCN2CC(=O)N3CCCC3C2=O)CC1.Cl (stereo not given)
3. COc1cccc(OC)c1OCCNC[C@H]1COc2cccc(Cl)c2O1.Cl
4. COc1ccccc1N1CCN(CCCCn2cnc3c2c(=O)n(C)c(=O)n3C)CC1
5. Cc1ccccc1-c1c2n(c(=O)n(CCCCN3CCC(c4c(C)[nH]c5ccccc45)CC3)c1=O)CCCC2

7.93
8.07
8.77
8.92
6.19

State, in one line, measured pKi of O=C1C[C@H](NC(=O)C23CC4CC(CC(C4)C2)C3)C(=O)N1CCCCN1CCN(c2cccc(Cl)c2)CC1
7.33

* * *

Here, molecules appear alongside pKi reported for UniProt:P19327 in the literature.
One number for each entry, as −log10 of the molar value.

Consider the worked cases shown below.
Molecule: O=C(CCN1CCN(c2nsc3ccccc23)CC1)c1cc2c3c(c1)CCC(=O)N3CCC2
pKi: 6.89

Molecule: Cc1cccc(O)c1-c1cccc2c1-c1cccc3c1[C@@H](C2)N(C)CC3 (stereo in doubt; 60)
pKi: 4.31

Molecule: COc1ccccc1N1CCN(CN2C(=O)CC(=C3c4ccccc4-c4ccccc43)C2=O)CC1
pKi: 7.21

Please find the next molecule below.
# lookup: UniProt:P19327 pKi, key = O=C1CCCC(=O)N1C1CCC(N2CCN(c3cccc(C(F)(F)F)c3)CC2)CC1 (trans isomer)
8.59

* * *

5-hydroxytryptamine receptor 1A (Rattus norvegicus) pKi, compiled from various sources.
Experimental System: 5-hydroxytryptamine receptor 1A (Rattus norvegicus)
Sequence (P19327 whole entry): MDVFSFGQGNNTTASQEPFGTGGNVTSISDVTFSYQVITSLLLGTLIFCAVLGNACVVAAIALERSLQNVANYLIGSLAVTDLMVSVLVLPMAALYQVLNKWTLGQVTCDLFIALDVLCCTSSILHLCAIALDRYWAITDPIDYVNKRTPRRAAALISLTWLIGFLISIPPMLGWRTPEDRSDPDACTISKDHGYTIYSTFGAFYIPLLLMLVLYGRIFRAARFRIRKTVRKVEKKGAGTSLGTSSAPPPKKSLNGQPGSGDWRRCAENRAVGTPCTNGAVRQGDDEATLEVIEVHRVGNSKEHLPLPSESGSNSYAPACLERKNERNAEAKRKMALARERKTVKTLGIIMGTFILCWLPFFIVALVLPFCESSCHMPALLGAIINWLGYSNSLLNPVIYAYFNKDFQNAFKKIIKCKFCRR
pKi: −log10 of the molar value.
Where pKi equals or exceeds 7, the correct label is true (1); where it does not, the label is false (0).

Past entries and their recorded results:
Compound: COc1ccc(N2CCC(CNCC3COc4ccccc4O3)CC2)cc1 (stereo not given)
Group Label: true (1)

Compound: COc1ccccc1N1CCN(CCn2c(=O)[nH]c3[nH]c(-c4ccccc4)c(-c4ccccc4)c3c2=O)CC1
Group Label: false (0)

Compound: CCOc1nc2c(c(=O)n(C)c(=O)n2C)n1CCCCN1CCN(c2cccc(Cl)c2)CC1
Group Label: true (1)

Compound: Cc1cccc(C(=O)N2CCC(CNCc3cccc(-n4cccn4)n3)CC2)c1
Group Label: true (1)

Compound: O=c1c2ccccc2nnn1OCCCN1CCN(c2cccc3ccccc23)CC1
Group Label: false (0)

Quick check: does COc1ccccc1N1CCN(CCCn2c(=O)[nH]c3cc[nH]c3c2=O)CC1 have pKi greater than or equal to 7?
false (0)

Does the reported pKi for O=c1c2c(c(OCCCN3CCC(c4noc5cc(F)ccc45)CC3)nn1-c1ccc(Cl)c(Cl)c1)CCCC2 fall at or above the 7 mark?
false (0)

Please tell me: is the compound Cl.O=C1C2CCCCN2C(=O)CN1CCCCNCC1CCc2ccccc2O1 (stereo not given) at or over 7 in terms of pKi?
true (1)

Tell me whether pKi is at least 7 here: CCCN(CCC)[C@@H]1CCc2cccc(-c3ccco3)c2[C@@H]1C
false (0)

Could you please find out whether COc1cccc(N2CCN(CCCCn3cnc4c(cnc5ccccc54)c3=O)CC2)c1 has pKi that meets 7 or exceeds it?
true (1)

Would you say O=c1ccc(OCCCN2CCN(c3ccccc3Cl)CC2)nn1-c1ccc(Cl)c(Cl)c1 shows pKi at minimum 7?
false (0)

Is the recorded value of pKi equal to or greater than 7 for this compound? Cc1ccc2c(c1)C(=O)N(CCN1CCN(c3cccc4c3OCCO4)CC1)C2=O
true (1)

Threshold query (pKi >= 7) on O=c1ccc(OCCCN2CCC(c3c[nH]c4ccccc34)CC2)nn1-c1ccc(Cl)c(Cl)c1
false (0)

Given the entry CCCN(CCC)C1COc2c(cccc2-c2ccccc2OC)C1 (stereo not given) , answer whether its pKi meets or surpasses 7.
true (1)

Check the entry c1cnc(NCCCNCC2COc3ccccc3O2)nc1 (stereo not given) : does pKi equal or exceed 7?
true (1)

Check if pKi >= 7 (inclusive). Item: CCc1cc2c(=O)n(N)c(SCCCN3CCN(c4ccccc4[N+](=O)[O-])CC3)nc2s1
true (1)

* * *

Experimental System: UniProtKB P19327
Sequence (P19327 whole entry): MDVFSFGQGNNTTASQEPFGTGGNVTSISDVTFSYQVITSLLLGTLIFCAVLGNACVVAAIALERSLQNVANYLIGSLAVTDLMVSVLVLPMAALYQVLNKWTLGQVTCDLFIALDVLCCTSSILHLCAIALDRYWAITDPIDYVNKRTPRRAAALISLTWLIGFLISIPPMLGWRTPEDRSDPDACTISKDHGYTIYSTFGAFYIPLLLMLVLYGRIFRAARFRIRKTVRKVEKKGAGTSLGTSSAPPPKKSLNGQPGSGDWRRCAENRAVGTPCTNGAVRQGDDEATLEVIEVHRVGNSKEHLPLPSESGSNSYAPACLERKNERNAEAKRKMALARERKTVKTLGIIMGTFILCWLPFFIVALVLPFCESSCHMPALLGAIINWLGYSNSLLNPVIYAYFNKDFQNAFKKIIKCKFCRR
// compounds with Ki on UniProtKB P19327, multi-source literature

Compound: O=C1C2CCCN2C(=O)N1CCCN1CCN(c2ccc(F)cc2)CC1 (centres undefined)
Experimental System: UniProtKB P19327
Ki: > 1000 nM

Compound: COc1ccccc1N1CCN(CCCON2C(=O)C3C4C=CC(C4)C3C2=O)CC1 (centres undefined)
Experimental System: UniProtKB P19327
Ki: 0.021 nM

Compound: COc1ccc(CCCCNCCOc2cc(F)cc3c2OCC/C3=N/O)cc1
Experimental System: UniProtKB P19327
Ki: 27.7 nM

Compound: COc1ccccc1N1CCN(CCn2c(=O)[nH]c3cc(-c4ccccc4Cl)[nH]c3c2=O)CC1
Experimental System: UniProtKB P19327
Ki: 16.1 nM

Compound: N#C/N=C(\NCCCN1CCN(c2cccc3ccccc23)CC1)c1ccccn1
Experimental System: UniProtKB P19327
Ki: 5.85 nM

Compound: O=C1C2CCCN2C(=O)N1CCCCNCCOc1cccc2cccnc12 (centres undefined)
Experimental System: UniProtKB P19327
Ki: 44 nM

Compound: O=C(c1ccc(F)c(Cl)c1)N1CCC(CNCc2cccc(-n3cccn3)n2)CC1
Experimental System: UniProtKB P19327
Ki: 1.55 nM

Compound: CCCN(CCC)C1COc2c(cccc2-c2ccccc2)C1 (centres undefined)
Experimental System: UniProtKB P19327
Ki: 1.1 nM

Compound: COc1ccccc1OCCNCCCCN1C(=O)C2CCCN2C1=O.Cl (centres undefined)
Experimental System: UniProtKB P19327
Ki: 4.8 nM

Compound: O=C1c2ccccc2S(=O)(=O)N1CCN1CCN(c2cccc3c2OCCO3)CC1
Experimental System: UniProtKB P19327
Ki: 1.23 nM

List Ki for every entry below, keeping the order given.
1. COc1ccccc1-n1cc(CN2CCN(c3ccccc3)CC2)c2ccccc21
2. O=C(NC1CCN(CCCc2ccccc2)C1)C12CC3CC(CC(C3)C1)C2 (centres undefined)
3. CC1(C)CC(=O)N(CCCCN2CCN(c3ccccn3)CC2)C(=O)C1

1: 86 nM; 2: 0.19 nM; 3: 70.8 nM

State, in one line, measured Ki of c1csc(CN2CCN(c3nc4cccnc4n4cccc34)CC2)c1
> 10000 nM
